Hello, the source for this data is the supplement of paper PMC9732359, in case you need it.

Assay: protein stability index of a GFP-peptide fusion (yeast GPS) (PSI 1-4); higher = more stable; sorted into four equal gates, so the index is relative within each strain
Settings: doa10∆
As shown below, each of these sequences has a reported protein stability index value.
OBSERVED PROPERTY: protein stability index

[[record]]
residue_sequence = "KPNLNYFKSILLNKNTG [SWI1]"
endpoint_value = 2.17

[[record]]
residue_sequence = "DRINYTETALMNLKKEL [SRB5]"
endpoint_value = 3.14

[[record]]
residue_sequence = "EITGTSCLTFFQALDSE [ITC1]"
endpoint_value = 2.46

[[record]]
residue_sequence = "SREVLRYEEFADKVKLG [RPC40]"
endpoint_value = 2.96

[[record]]
residue_sequence = "SAIEHTTLKSVTIASEI [RPO21]"
endpoint_value = 2.54

[[record]]
residue_sequence = "LSQVYPTLVRSVISGNL [CSN12]"
endpoint_value = 2.54

[[record]]
residue_sequence = "NLTPANILNMSMNNDFQ [PGD1]"
endpoint_value = 2.86

[[record]]
residue_sequence = "GEQIIVHPVNEREPVPL [RRP45]"
endpoint_value = 2.85

[[record]]
residue_sequence = "IDVNLNFARQLLFNNDF [RRP40]"
endpoint_value = 2.93

[[record]]
residue_sequence = "LQDEVMNIKPVQKQTRA [RPS2]"
endpoint_value = 2.91

[[record]]
residue_sequence = "QLLEKAPIPIREDIDDP [BRR2]"
endpoint_value = 2.64

[[record]]
residue_sequence = "KLALGIALEGYRLDIIE [RPN2]"
endpoint_value = 2.51

[[record]]
residue_sequence = "SNPQHIIQPFLDNSKMD [RGR1]"
endpoint_value = 2.91

[[record]]
residue_sequence = "YGLIRGLKFASFIFQYY [PRP8]"
endpoint_value = 2.23

[[record]]
residue_sequence = "QNRSLQEHNIQDSNVMP [SNF2]"
endpoint_value = 3.19

